The reported numbers originate from PubChem BioAssay (EPA / NIEHS).

- target.entity: Peroxisome proliferator-activated receptor gamma (Homo sapiens) (UniProt P37231)
- Sequence (P37231 whole entry, looked up): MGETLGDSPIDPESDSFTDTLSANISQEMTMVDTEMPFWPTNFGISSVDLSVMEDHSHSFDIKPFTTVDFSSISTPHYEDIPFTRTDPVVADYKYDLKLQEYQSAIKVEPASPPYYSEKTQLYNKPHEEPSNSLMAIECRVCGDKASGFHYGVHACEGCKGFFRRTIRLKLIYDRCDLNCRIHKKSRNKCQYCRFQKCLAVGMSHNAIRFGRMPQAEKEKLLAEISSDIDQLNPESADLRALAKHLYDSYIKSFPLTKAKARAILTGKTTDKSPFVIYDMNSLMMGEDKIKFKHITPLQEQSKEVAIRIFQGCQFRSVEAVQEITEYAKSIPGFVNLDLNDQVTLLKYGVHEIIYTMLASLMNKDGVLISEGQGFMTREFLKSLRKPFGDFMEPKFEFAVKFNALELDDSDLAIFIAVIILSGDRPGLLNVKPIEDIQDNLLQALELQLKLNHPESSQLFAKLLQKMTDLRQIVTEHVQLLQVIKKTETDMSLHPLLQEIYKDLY
- assay.comment: ATG_PPARg_TRANS: Attagene TRANS-FACTORIAL HepG2 Assay for human Peroxisome Proliferator-activated Receptor-gamma (PPARg) (AID 2283007)
Results filed as inconclusive are left out. Activity calls are given as the source filed them. The calls were made as follows: active = hit-call score of the fitted dose curve at least 0.9, where 1 is the maximum; inconclusive = response in the unintended direction; inactive = score below 0.9.
Tick one outcome: YES for active, NO for inactive

Below are worked cases with known answers.
compound	group.label
C=CC(=O)OCC(CO)(COC(=O)C=C)COC(=O)C=C	NO
Cc1cc(O)c2c(c1)C(=O)c1cc(O)cc(O)c1C2=O	YES
CC(C)=CCCC(C)=CC(=O)O	YES
CCCCCCCCCO	NO
CCOC(=O)CCCCCCCCC(=O)OCC	NO

Q: How did this test come out for NNC(=O)OCc1ccccc1 ?
Ans: NO

Q: How did this test come out for c1coc(CNc2ncnc3nc[nH]c23)c1 ?
Ans: NO

Q: How did this test come out for CCC(C)COC(=O)CC(C)C (centres undefined) ?
Ans: NO

Q: How did this test come out for NC(N)=NC(N)=NCCc1ccccc1 ?
Ans: NO

Q: How did this test come out for COC(=O)C(C)Oc1ccc(Oc2ncc(C(F)(F)F)cc2Cl)cc1 (centres undefined) ?
Ans: YES

Q: How did this test come out for c1ccc(Cc2ccccc2)cc1 ?
Ans: NO

Q: How did this test come out for CCCCCCCCCCOC(=O)c1ccccc1C(=O)OCCCCCCCC ?
Ans: NO

Q: How did this test come out for Cc1cccc(C)c1 ?
Ans: NO

Q: How did this test come out for CCCCCCCCSCc1cc(C)c(O)c(CSCCCCCCCC)c1 ?
Ans: NO

###

- Read-out: matrix metalloproteinase-3 (MMP3), MMP3 (gene 4314)
- assay.comment: LTEA_HepaRG_MMP3: Life Technologies and Expression Analysis (LTEA) Assay for matrix metalloproteinase-3 (MMP3) using HepaRG (AID 2283519)
- assay.conditions: mRNA level, 48 h; actives raise or lower the signal
Activity calls are given as the source filed them. How the source made its calls: active means hit-call score of the fitted dose curve at least 0.9, where 1 is the maximum; inactive means score below 0.9.
measured.attribute: outcome

# example entries with known answers
C=C(C)C(N)=O inactive
O=C(c1ccc(OCCN2CCCCC2)cc1)c1c(-c2ccc(O)cc2)sc2cc(O)ccc12 inactive
COC(=O)c1ccc(C(=O)OC)cc1 inactive
C#C[C@]1(O)CC[C@H]2[C@@H]3CCc4cc(O)ccc4[C@H]3CC[C@@]21C inactive

Field: next compound
outcome in this record for C[C@]12CC[C@@H]3c4ccc(O)cc4CC[C@H]3[C@@H]1CC[C@@H]2O : inactive

###

- assay.comment: CCTE_Shafer_MEA_dev_correlation_coefficient_mean: CCTE's Neural Network Formation Assay for Mean Correlation Coefficient, Shafer Lab (AID 2284093)
Calls of active or inactive are those of the source. Rule for the calls: active = hit-call score of the fitted dose curve at least 0.9, where 1 is the maximum; inactive = score below 0.9.
Tick one outcome: 1 (yes) = active, 0 (no) = inactive

Below are worked cases with known answers.
molecule	group.label
CCCCC(CC)COC(=O)COc1ccc(Cl)cc1C (stereo unspecified)	0 (no)
C[C@]12CC[C@@H]3c4ccc(O)cc4CC[C@H]3[C@@H]1CC[C@@H]2O	0 (no)
CC(C)Cc1ccc(C(C)C(=O)O)cc1 (stereo unspecified)	0 (no)
CC/C(=C(\c1ccccc1)c1ccc(OCCN(C)C)cc1)c1ccccc1	1 (yes)
N#CCCNCCC#N	0 (no)

# next molecule below
Q: How did this test come out for N[C@@H](CCC(=O)O)C(=O)O ?
Ans: 0 (no)

###

- target.entity: Androgen Receptor/SRC-1 Co-activator, AR (gene 367) (UniProt P10275)
- Sequence (P10275 whole entry, looked up): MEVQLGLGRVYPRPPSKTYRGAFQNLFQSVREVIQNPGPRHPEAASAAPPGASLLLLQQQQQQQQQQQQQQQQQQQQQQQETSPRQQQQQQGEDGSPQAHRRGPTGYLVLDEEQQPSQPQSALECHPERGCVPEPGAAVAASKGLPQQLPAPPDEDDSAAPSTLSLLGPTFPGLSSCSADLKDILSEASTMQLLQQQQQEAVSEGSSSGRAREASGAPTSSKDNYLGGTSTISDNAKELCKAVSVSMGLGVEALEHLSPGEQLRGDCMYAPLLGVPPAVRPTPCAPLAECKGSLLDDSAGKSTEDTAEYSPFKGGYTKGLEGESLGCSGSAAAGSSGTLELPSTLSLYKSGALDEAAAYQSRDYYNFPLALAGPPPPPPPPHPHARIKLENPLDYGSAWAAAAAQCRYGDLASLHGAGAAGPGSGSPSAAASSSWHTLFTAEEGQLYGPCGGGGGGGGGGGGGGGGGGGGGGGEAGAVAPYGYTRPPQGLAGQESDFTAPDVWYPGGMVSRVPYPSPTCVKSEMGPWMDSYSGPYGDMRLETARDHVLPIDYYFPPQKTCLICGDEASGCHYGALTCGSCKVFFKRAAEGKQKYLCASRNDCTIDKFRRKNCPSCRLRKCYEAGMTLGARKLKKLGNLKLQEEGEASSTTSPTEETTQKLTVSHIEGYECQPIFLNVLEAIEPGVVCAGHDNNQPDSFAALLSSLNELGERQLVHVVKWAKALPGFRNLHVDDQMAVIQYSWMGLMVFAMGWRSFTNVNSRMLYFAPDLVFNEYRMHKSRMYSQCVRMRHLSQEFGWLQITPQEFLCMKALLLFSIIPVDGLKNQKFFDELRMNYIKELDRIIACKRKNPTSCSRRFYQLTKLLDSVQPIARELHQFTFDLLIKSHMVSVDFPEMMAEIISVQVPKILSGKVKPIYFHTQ
- assay.comment: OT_AR_ARSRC1_0480: Odyssey Thera (OT) 8-hour HEK293T Protein-Complementation Assay for Androgen Receptor/SRC-1 Co-activator (AID 2283354);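 also: hits raise the complementation signal above DMSO so AC50 marks enhancers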
Records with an inconclusive call do not appear. Calls of active or inactive are those of the source. Rule for the calls: active = hit-call score of the fitted dose curve at least 0.9, where 1 is the maximum; inconclusive = response in the unintended direction; inactive = score below 0.9.
measured.attribute: outcome

# example entries with known answers
compound	target.entity	outcome
CC1COC(=O)O1 (stereo not given)	Androgen Receptor/SRC-1 Co-activator, AR (gene 367) (UniProt P10275)	inactive
CCC(C)(C)C1CCC(=O)CC1	Androgen Receptor/SRC-1 Co-activator, AR (gene 367) (UniProt P10275)	inactive
CC(C)(CO)CO	Androgen Receptor/SRC-1 Co-activator, AR (gene 367) (UniProt P10275)	inactive
CCO[Si](CC)(OCC)OCC	Androgen Receptor/SRC-1 Co-activator, AR (gene 367) (UniProt P10275)	inactive

Case CCCCCCCCCCOC(=O)c1ccccc1C(=O)OCCCCCCCC , Androgen Receptor/SRC-1 Co-activator, AR (gene 367) (UniProt P10275), outcome recorded as inactive

Case CC1=CCC(C(C)(C)O)CC1 (stereo not given) , Androgen Receptor/SRC-1 Co-activator, AR (gene 367) (UniProt P10275), outcome recorded as inactive

Case CC(CCO)CC(C)(C)C (stereo not given) , Androgen Receptor/SRC-1 Co-activator, AR (gene 367) (UniProt P10275), outcome recorded as inactive

Case FC(F)(F)c1ccc(Cl)c(Cl)c1 , Androgen Receptor/SRC-1 Co-activator, AR (gene 367) (UniProt P10275), outcome recorded as inactive

Case COc1cc(OC)c2ccc(=O)oc2c1 , Androgen Receptor/SRC-1 Co-activator, AR (gene 367) (UniProt P10275), outcome recorded as inactive

Case CC(C)(C)c1cccc(O)c1 , Androgen Receptor/SRC-1 Co-activator, AR (gene 367) (UniProt P10275), outcome recorded as inactive

###

- assay.comment: ATG_NF_kB_CIS: Attagene CIS-FACTORIAL HepG2 Assay for human Nuclear Factor Kappa B (NF-kB) (AID 2282991)
- assay.conditions: HepG2 Attagene cis-factorial NF-kB reporter mRNA; actives raise or lower the signal
Activity calls are given as the source filed them. How the source made its calls: active means hit-call score of the fitted dose curve at least 0.9, where 1 is the maximum; inactive means score below 0.9.
Tick one outcome: True = active, False = inactive

Below are worked cases with known answers.
compound	group.label
CC(=O)CCc1ccc(O)cc1	False
CCCCCCOC(C)=O	False
CC(C)(C)c1cc(CCC(=O)OCCSCCOC(=O)CCc2cc(C(C)(C)C)c(O)c(C(C)(C)C)c2)cc(C(C)(C)C)c1O	False
CCNC(=S)NCC	False
O=Cc1ccccc1O	False
OCCN1CCOCC1	False

Q: How did this test come out for c1ccc(Sc2ccccc2)cc1 ?
Ans: False

###

- target.entity: rat Thyrotropin Releasing Hormone Receptor (TRH), Trhr (gene 25570) (UniProt Q01717)
- Sequence (Q01717 whole entry, looked up): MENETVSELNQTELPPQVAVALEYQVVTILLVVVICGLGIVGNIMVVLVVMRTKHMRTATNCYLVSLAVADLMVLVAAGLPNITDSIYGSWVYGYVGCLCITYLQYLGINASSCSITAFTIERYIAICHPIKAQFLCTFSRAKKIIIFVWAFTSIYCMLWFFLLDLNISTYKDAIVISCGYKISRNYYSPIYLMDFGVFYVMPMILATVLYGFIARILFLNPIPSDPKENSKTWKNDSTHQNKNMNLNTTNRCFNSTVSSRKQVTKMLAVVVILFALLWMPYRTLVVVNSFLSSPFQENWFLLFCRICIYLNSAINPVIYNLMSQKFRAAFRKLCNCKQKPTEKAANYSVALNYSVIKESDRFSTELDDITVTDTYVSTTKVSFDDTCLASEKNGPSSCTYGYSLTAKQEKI
- assay.comment: NVS_GPCR_rTRH: NovaScreen (NVS) G Protein-Coupled Receptor Assay for rat Thyrotropin Releasing Hormone Receptor (TRH) (AID 2283329);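 also: hit means lower bound tracer signal versus DMSO baseline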
Inconclusive results are not listed. Active and inactive are the calls of the source. The calls were made as follows: active = hit-call score of the fitted dose curve at least 0.9, where 1 is the maximum; inconclusive = response in the unintended direction; inactive = score below 0.9.
Tick one outcome: active, inactive

Below are worked cases with known answers.
molecule	target.entity	group.label
CC(C)C(=O)c1ccccc1	rat Thyrotropin Releasing Hormone Receptor (TRH), Trhr (gene 25570) (UniProt Q01717)	inactive
CCc1cccc(O)c1	rat Thyrotropin Releasing Hormone Receptor (TRH), Trhr (gene 25570) (UniProt Q01717)	inactive
NC(N)=S	rat Thyrotropin Releasing Hormone Receptor (TRH), Trhr (gene 25570) (UniProt Q01717)	inactive
c1coc(CNc2ncnc3nc[nH]c23)c1	rat Thyrotropin Releasing Hormone Receptor (TRH), Trhr (gene 25570) (UniProt Q01717)	inactive
CC12CCC(C1)C(C)(C)C2O (stereo not drawn)	rat Thyrotropin Releasing Hormone Receptor (TRH), Trhr (gene 25570) (UniProt Q01717)	inactive

Q: How did this test come out for OCC=Cc1ccccc1 ?
Ans: inactive

Q: How did this test come out for CCC(C)(C)C1CCC(OC)CC1 (stereo not drawn) ?
Ans: inactive

Q: How did this test come out for C1CCCNCC1 ?
Ans: inactive

###

- assay.comment: BSK_3C_VCAM1: BioMAP Diversity Plus: 3C Assay for Vascular cell adhesion molecule 1 (VCAM1) Biomarker Activity (AID 2282999)
- assay.conditions: BioMAP 3C HUVEC, VCAM1 ELISA, cytokine-stimulated; actives raise or lower the signal
- Procedure: BSK_3C is a cell-based, multiplexed-readout assay that uses umbilical vein endothelium, a human vascular primary cell, with measurements taken at 24 hours after chemical dosing in a 96-well plate.BSK_3C_VCAM1 is an assay component measured in the BSK_3C assay. It measures VCAM-1 antibody related to regulation of gene expression using ELISA technology.Data from the assay component BSK_3C_VCAM1 was analyzed into 1 assay endpoint. […]
The source made the active and inactive calls. How the source made its calls: active means hit-call score of the fitted dose curve at least 0.9, where 1 is the maximum; inactive means score below 0.9.
measured.attribute: AC50

# example entries with known answers
compound	observed
CCC(=O)OCC=Cc1ccccc1	inactive
COc1ccccc1NC(=O)CC(C)=O	inactive
C=CC(=O)OCC(CO)(COC(=O)C=C)COC(=O)C=C	0.0478 µM (active)
OCCN1CCOCC1	inactive
O=C1OC2(c3ccc(O)cc3Oc3cc(O)ccc32)c2ccccc21	inactive

AC50 in this record for C[C@]12CC[C@@H]3c4ccc(O)cc4CC[C@H]3[C@@H]1CC[C@@H]2O : inactive

AC50 in this record for CCn1cc(C(=O)O)c(=O)c2ccc(C)nc21 : inactive

AC50 in this record for O=C(O)C(F)(F)C(F)(F)C(F)(F)C(F)(F)C(F)(F)C(F)(F)C(F)(F)C(F)F : inactive

AC50 in this record for O=C(c1ccc(OCCN2CCCCC2)cc1)c1c(-c2ccc(O)cc2)sc2cc(O)ccc12 : 35.4 µM (active)

AC50 in this record for CC(C)(CO)CO : inactive

AC50 in this record for CC(C)Cc1ccc(C(C)C(=O)O)cc1 (stereo not drawn) : inactive

AC50 in this record for CCOC(=O)CCCCCCCCC(=O)OCC : inactive

AC50 in this record for c1ccc(OCCOc2ccccc2)cc1 : inactive
